Reference for the values: PubChem BioAssay AID2060508

System: 454973-116-R2-J3-PDC spheroids, viability, % test/control
Assay: Anticancer human tumor 454973-116-R2-J3-PDC patient-derived pancreatic carcinoma cell line growth inhibition [GQUAD]
Conditions: second compound 1 µM; first compound 0.316 µM; stronger effect = lower value; spheroids with HUVEC and MSC
Description: DNA G-quadruplex Stabilizer Agents in Combinations in Complex Spheroids A high-throughput screen of multi-cell type tumor spheroids was designed to identify active combinations of DNA G-quadruplex stabilizer agents and targeted small molecules. […] Compounds. […] If the clinical Cmax for an agent had not been determined, the highest concentration tested was 10 microM. […]
In plain terms, low viability, T/C, meaning strictly below 80%, gives 1, and everything else gives 0.

C=CC(=O)N1CCN(c2nc(=O)n(-c3c(C)ccnc3C(C)C)c3nc(-c4c(O)cccc4F)c(F)cc23)C(C)C1 (stereo not given) + Cc1[nH]c2ccc(F)cc2c1-c1nc2c3cccnc3c3ncccc3c2[nH]1	0
COc1ncnc(C2CC2)c1-c1ncc2cnn(Cc3ccc(-c4nc(C(F)(F)F)cn4C(C)C)cc3)c2n1 + CN(C)c1ccc(Nc2c3ccc(NC(=O)CCN4CCCC4)cc3nc3cc(NC(=O)CCN4CCCC4)ccc23)cc1	0
COc1cccc2c1C(=O)c1c(O)c3c(c(O)c1C2=O)CC(O)(C(=O)CO)CC3OC1CC(N)C(O)C(C)O1 (stereo not given) + Cc1[nH]c2ccc(F)cc2c1-c1nc2c3cccnc3c3ncccc3c2[nH]1	1
CC1COCCN1c1cc(-c2ccnn2C)c2ccnc(-c3ccn[nH]3)c2n1 (stereo not given) + Cc1cnc(CNC(=O)c2c(=O)c3ccc(N4CCCN(C)CC4)nc3n3c2sc2ccccc23)cn1	1
CC(=O)O[C@H]1C(=O)[C@@]2(C)[C@H]([C@H](OC(=O)c3ccccc3)[C@]3(O)C[C@H](OC(=O)[C@H](O)[C@@H](NC(=O)c4ccccc4)c4ccccc4)C(C)=C1C3(C)C)[C@]1(OC(C)=O)CO[C@@H]1C[C@@H]2O + Cc1[nH]c2ccc(F)cc2c1-c1nc2c3cccnc3c3ncccc3c2[nH]1	1
Nc1ccn(C2OC(CO)C(O)C2(F)F)c(=O)n1 (stereo not given) + CN(C)c1ccc(Nc2c3ccc(NC(=O)CCN4CCCC4)cc3nc3cc(NC(=O)CCN4CCCC4)ccc23)cc1	1
CCc1c2c(nc3ccc(O)cc13)-c1cc3c(c(=O)n1C2)COC(=O)[C@]3(O)CC + Cc1[nH]c2ccc(F)cc2c1-c1nc2c3cccnc3c3ncccc3c2[nH]1	1
COc1ncnc(C2CC2)c1-c1ncc2cnn(Cc3ccc(-c4nc(C(F)(F)F)cn4C(C)C)cc3)c2n1 + Cc1cnc(CNC(=O)c2c(=O)c3ccc(N4CCCN(C)CC4)nc3n3c2sc2ccccc23)cn1	1

* * *

Here, each record is paired with measured viability, T/C data.
system: 454973-116-R2-J3-PDC spheroids, viability, % test/control; assay: Anticancer human tumor 454973-116-R2-J3-PDC cell line growth inhibition [GQUAD]; conditions: second compound 10 µM; first compound 0.0316 µM; stronger effect = lower value; spheroids with HUVEC and MSC;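 further: spheroids exposed to compounds for seven days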;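 on viability, T/C: 100% = DMSO vehicle control viability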
endpoint: viability, T/C

Cc1[nH]c2ccccc2c1CCNCc1ccc(/C=C/C(=O)NO)cc1 + Cc1cnc(CNC(=O)c2c(=O)c3ccc(N4CCCN(C)CC4)nc3n3c2sc2ccccc23)cn1	31.6%
C=CC(=O)N1CCN(c2nc(=O)n(-c3c(C)ccnc3C(C)C)c3nc(-c4c(O)cccc4F)c(F)cc23)C(C)C1 (stereo not given) + CN(C)c1ccc(Nc2c3ccc(NC(=O)CCN4CCCC4)cc3nc3cc(NC(=O)CCN4CCCC4)ccc23)cc1	83.4%
Cn1ncnc1[C@H]1c2n[nH]c(=O)c3cc(F)cc(c23)N[C@@H]1c1ccc(F)cc1 + CN(C)c1ccc(Nc2c3ccc(NC(=O)CCN4CCCC4)cc3nc3cc(NC(=O)CCN4CCCC4)ccc23)cc1	63.8%
Cc1cccc(N(C)C(=O)C2C(O)CCN2c2nc(C)cc(C(F)(F)F)c2C#N)c1 (stereo not given) + Cc1cnc(CNC(=O)c2c(=O)c3ccc(N4CCCN(C)CC4)nc3n3c2sc2ccccc23)cn1	0.75%
Nc1ccn(C2OC(CO)C(O)C2(F)F)c(=O)n1 (stereo not given) + CN(C)c1ccc(Nc2c3ccc(NC(=O)CCN4CCCC4)cc3nc3cc(NC(=O)CCN4CCCC4)ccc23)cc1	22.8%

* * *

Here, each record is paired with measured viability, T/C data.
test system: 454973-116-R2-J3-PDC spheroids, viability, % test/control; assay: Anticancer human tumor 454973-116-R2-J3-PDC cell line growth inhibition [GQUAD]; conditions: second compound 0.316 µM; first compound 0.316 µM; stronger effect = lower value; spheroids with HUVEC and MSC;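 further: spheroids exposed to compounds for seven days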;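 on viability, T/C: 100% = DMSO vehicle control viability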
endpoint: viability, T/C (%)

O=C(c1cc(Cc2n[nH]c(=O)c3ccccc23)ccc1F)N1CCN(C(=O)C2CC2)CC1 + Cc1cnc(CNC(=O)c2c(=O)c3ccc(N4CCCN(C)CC4)nc3n3c2sc2ccccc23)cn1	61.7
O=c1[nH]cc(F)c(=O)[nH]1 + Cc1[nH]c2ccc(F)cc2c1-c1nc2c3cccnc3c3ncccc3c2[nH]1	105
CC(=O)O[C@H]1C(=O)[C@@]2(C)[C@H]([C@H](OC(=O)c3ccccc3)[C@]3(O)C[C@H](OC(=O)[C@H](O)[C@@H](NC(=O)c4ccccc4)c4ccccc4)C(C)=C1C3(C)C)[C@]1(OC(C)=O)CO[C@@H]1C[C@@H]2O + Cc1cnc(CNC(=O)c2c(=O)c3ccc(N4CCCN(C)CC4)nc3n3c2sc2ccccc23)cn1	17.9
CC[C@@]1(O)C(=O)OCc2c1cc1n(c2=O)Cc2cc3c(CN(C)C)c(O)ccc3nc2-1 + Cc1cnc(CNC(=O)c2c(=O)c3ccc(N4CCCN(C)CC4)nc3n3c2sc2ccccc23)cn1	32.9

* * *

Tested on: 454973-116-R2-J3-PDC spheroids, viability, % test/control
Experiment: Anticancer human tumor 454973-116-R2-J3-PDC cell line growth inhibition [GQUAD];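 further: spheroids exposed to compounds for seven days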
Details: curve of first compound; second compound 0.0316 µM; spheroids with HUVEC and MSC
Excerpt: DNA G-quadruplex Stabilizer Agents in Combinations in Complex Spheroids A high-throughput screen of multi-cell type tumor spheroids was designed to identify active combinations of DNA G-quadruplex stabilizer agents and targeted small molecules. […] Compounds. […] If the clinical Cmax for an agent had not been determined, the highest concentration tested was 10 microM. […]
endpoint: IC50 (nM)

CC1COCCN1c1cc(C2(S(C)(=N)=O)CC2)nc(-c2ccnc3[nH]ccc23)n1 (stereo not given) + Cc1cnc(CNC(=O)c2c(=O)c3ccc(N4CCCN(C)CC4)nc3n3c2sc2ccccc23)cn1	2560
O=C(c1cc(Cc2n[nH]c(=O)c3ccccc23)ccc1F)N1CCN(C(=O)C2CC2)CC1 + Cc1cnc(CNC(=O)c2c(=O)c3ccc(N4CCCN(C)CC4)nc3n3c2sc2ccccc23)cn1	9010
CCc1c2c(nc3ccc(O)cc13)-c1cc3c(c(=O)n1C2)COC(=O)[C@]3(O)CC + Cc1[nH]c2ccc(F)cc2c1-c1nc2c3cccnc3c3ncccc3c2[nH]1	1.53
C#Cc1c(F)ccc2cc(O)cc(-c3ncc4c(N5CC6CCC(C5)N6)nc(OCC56CCCN5CC(F)C6)nc4c3F)c12 (stereo not given) + Cc1[nH]c2ccc(F)cc2c1-c1nc2c3cccnc3c3ncccc3c2[nH]1	55.4
O=C(NO)c1cnc(N2CCN(S(=O)(=O)c3ccc4ccccc4c3)CC2)nc1 + Cc1[nH]c2ccc(F)cc2c1-c1nc2c3cccnc3c3ncccc3c2[nH]1	221

* * *

test system: 454973-116-R2-J3-PDC spheroids, viability, % test/control; assay: Anticancer human tumor 454973-116-R2-J3-PDC cell line growth inhibition [GQUAD]; conditions: second compound 0.316 µM; first compound 0.316 µM; stronger effect = lower value; spheroids with HUVEC and MSC;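 further: spheroids exposed to compounds for seven days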;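 on viability, T/C: 100% = DMSO vehicle control viability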
endpoint: viability, T/C (%)

CC(=O)O[C@H]1C(=O)[C@@]2(C)[C@H]([C@H](OC(=O)c3ccccc3)[C@]3(O)C[C@H](OC(=O)[C@H](O)[C@@H](NC(=O)c4ccccc4)c4ccccc4)C(C)=C1C3(C)C)[C@]1(OC(C)=O)CO[C@@H]1C[C@@H]2O + Cc1[nH]c2ccc(F)cc2c1-c1nc2c3cccnc3c3ncccc3c2[nH]1	5.61
COc1cccc2c1C(=O)c1c(O)c3c(c(O)c1C2=O)CC(O)(C(=O)CO)CC3OC1CC(N)C(O)C(C)O1 (stereo not given) + Cc1[nH]c2ccc(F)cc2c1-c1nc2c3cccnc3c3ncccc3c2[nH]1	27.6
CC1COCCN1c1cc(C2(O)CC3CCC(C2)O3)c2cnn(-c3ccn[nH]3)c2n1 (stereo not given) + Cc1cnc(CNC(=O)c2c(=O)c3ccc(N4CCCN(C)CC4)nc3n3c2sc2ccccc23)cn1	24.9
COc1ccc([C@@H](O)c2cc(-c3ncnc4cc(N5CCOCC5)ccc34)c(F)cc2Cl)nn1 + Cc1cnc(CNC(=O)c2c(=O)c3ccc(N4CCCN(C)CC4)nc3n3c2sc2ccccc23)cn1	49.6
CC(C)(O)C1CCC(Nc2ccc3ncc(-c4cccc(C(F)(F)F)c4)n3n2)CC1 (stereo not given) + Cc1cnc(CNC(=O)c2c(=O)c3ccc(N4CCCN(C)CC4)nc3n3c2sc2ccccc23)cn1	76.2
Cc1cccc(N(C)C(=O)C2C(O)CCN2c2nc(C)cc(C(F)(F)F)c2C#N)c1 (stereo not given) + CN(C)c1ccc(Nc2c3ccc(NC(=O)CCN4CCCC4)cc3nc3cc(NC(=O)CCN4CCCC4)ccc23)cc1	97.7
CCCS(=O)(=O)Nc1ccc(F)c(C(=O)c2c[nH]c3ncc(-c4ccc(Cl)cc4)cc23)c1F + Cc1cnc(CNC(=O)c2c(=O)c3ccc(N4CCCN(C)CC4)nc3n3c2sc2ccccc23)cn1	79.5
CC1COCCN1c1cc(C2(S(C)(=N)=O)CC2)nc(-c2ccnc3[nH]ccc23)n1 (stereo not given) + CN(C)c1ccc(Nc2c3ccc(NC(=O)CCN4CCCC4)cc3nc3cc(NC(=O)CCN4CCCC4)ccc23)cc1	99.8
O=C(NO)c1cnc(N2CCN(S(=O)(=O)c3ccc4ccccc4c3)CC2)nc1 + Cc1[nH]c2ccc(F)cc2c1-c1nc2c3cccnc3c3ncccc3c2[nH]1	62.1
Cc1[nH]c2ccccc2c1CCNCc1ccc(/C=C/C(=O)NO)cc1 + Cc1cnc(CNC(=O)c2c(=O)c3ccc(N4CCCN(C)CC4)nc3n3c2sc2ccccc23)cn1	2.72
